- Read-out: Macrophage colony-stimulating factor (MCSF), CSF1 (gene 1435)
- Experiment Description: BSK_LPS_MCSF: BioMAP Diversity Plus: LPS Assay for Macrophage colony-stimulating factor (MCSF) Biomarker Activity (AID 2283083)
- Experimental Parameters: primary human HUVEC with PBMC; actives raise or lower the signal
The source made the active and inactive calls. The calls were made as follows: active = hit-call score of the fitted dose curve at least 0.9, where 1 is the maximum; inactive = score below 0.9.
Measured Attribute: outcome

INSERT INTO results (compound, measured_attribute, obs_value) VALUES
  ('CS(=O)(=O)c1ccc([C@@H](C[C@H]2CCC(=O)C2)C(=O)Nc2cnccn2)cc1Cl', 'outcome', 'inactive'),
  ('O=C(O)CC(O)(CC(=O)O)C(=O)O', 'outcome', 'inactive'),
  ('CC(C)(O)c1ccc(CNC(=O)c2cccnc2Oc2ccc(F)cc2)cc1', 'outcome', 'inactive'),
  ('CC(COCC(C)OC(=O)c1ccccc1)OC(=O)c1ccccc1 (stereo not drawn)', 'outcome', 'inactive');

Challenge: Look up outcome of O=C1NC(=O)C(c2ccccc2)(c2ccccc2)N1 and report it.
Response given: inactive

Challenge: Tell us which outcome value is on record for c1ccc2occc2c1
Response given: inactive

Challenge: Tell me measured outcome for CCOCCOCCO please.
Response given: inactive

Challenge: Return the recorded outcome value; entry: Cc1occc(=O)c1O
Response given: inactive

Challenge: For the compound S=c1[nH]c2ccccc2s1 , give its measured outcome value.
Response given: inactive

Challenge: Return reported outcome. Input compound: O=C1O[C@H]([C@H](O)CO)C(O)=C1O
Response given: inactive

Challenge: Dear colleague, please send me the reported outcome for Cn1cnc2c1c(=O)[nH]c(=O)n2C when you can.
Response given: inactive

Challenge: Respond only with outcome recorded for CC(C)COC(=O)CCCCC(=O)OCC(C)C
Response given: inactive

Challenge: Provide only the value of recorded outcome for CC(C)c1cccc(C(C)C)c1NC(=O)NS(=O)(=O)c1cc(C(C)(C)O)co1
Response given: inactive

====

- Experiment Description: ATG_VDRE_CIS: Attagene CIS-FACTORIAL HepG2 Assay for human Vitamin D Receptor Element (VDRE) (AID 2282968)
- Experimental Parameters: HepG2 VDRE cis-reporter transcription, actives raise or lower the signal
Calls of active or inactive are those of the source. Rule for the calls: active = hit-call score of the fitted dose curve at least 0.9, where 1 is the maximum; inactive = score below 0.9.
Lab note: assign the record to one of TRUE (active), FALSE (inactive)

INSERT INTO assay_data (molecule, assigned_class) VALUES
  ('CCCCc1nc2cccnc2n1Cc1ccc(-c2ccccc2-c2nnn[nH]2)cc1', 'FALSE');

Challenge: Entry Oc1ccccc1O : call = ?
Response given: TRUE

Challenge: In this assay, the call recorded for O=C(O)c1[nH]n(-c2ccc(S(=O)(=O)O)cc2)c(=O)c1N=Nc1ccc(S(=O)(=O)O)cc1 was what?
Response given: FALSE

Challenge: Can you look up the reported call for Cc1cn([C@H]2C=C[C@@H](CO)O2)c(=O)[nH]c1=O for me?
Response given: FALSE

Challenge: Could you please tell me the result logged for CC(=O)CC(c1ccccc1)c1c(O)c2ccccc2oc1=O (stereo unspecified) in this assay?
Response given: FALSE

Challenge: Hi team, can someone confirm the assay call for CCCCOC(=O)CCCCC(=O)OCCCC ?
Response given: FALSE

Challenge: Recorded test call requested for C=CCCCCCCCCCCCC
Response given: FALSE

Challenge: In this assay, the call recorded for CCCCC(CC)COP(=O)(OCC(CC)CCCC)OCC(CC)CCCC (stereo unspecified) was what?
Response given: TRUE

Challenge: Please share the test call associated with Nc1nc(Cl)nc2c1ncn2[C@H]1C[C@H](O)[C@@H](CO)O1 .
Response given: FALSE

Challenge: Which outcome did this test record for the molecule CC(=O)[C@@]1(O)CC[C@H]2[C@@H]3CCC4=CC(=O)CC[C@]4(C)[C@H]3CC[C@@]21C ?
Response given: FALSE

Challenge: Give the logged outcome of this assay for the following molecule: CC(COCC(C)OC(=O)c1ccccc1)OC(=O)c1ccccc1 (stereo unspecified)
Response given: FALSE

Source: PubChem BioAssay (EPA / NIEHS)
